- EXPERIMENT NOTES: AUC (0 to infinity) in Sprague-Dawley rat at 12 mg/kg, iv administered by bolus injection measured up to 24 hrs by LC-MS/MS analysis
- Format: ADME, organism-based
- Design: dose 12 mg/kg, route intravenous, time infinity
- CONDITIONS USED: in vivo

TEST SMILES	AUC(0-inf), ng·h/mL
COc1ccc(N(C)c2nc(C)nc3ccccc23)cc1OCCCC(=O)NO	2430

* * *

- EXPERIMENT NOTES: Cmax in Sprague-Dawley rat at 12 mg/kg, iv administered by bolus injection measured up to 24 hrs by LC-MS/MS analysis
- Type: ADME, organism-based
- Set-up: dose 12 mg/kg, route intravenous
- CONDITIONS USED: in vivo

TEST SMILES	Cmax (ng/mL)
COc1ccc(N(C)c2nc(C)nc3ccccc23)cc1OCCCC(=O)NO	2210

* * *

Listed here: items and their measured pIC50.
- Test system: HT-29
- EXPERIMENT NOTES: Cytotoxicity against human HT-29 cells after 72 hrs by MTT assay
- Assay type: functional, cell-based
- CONDITIONS USED: HT-29, 72 h
pIC50: −log10 of the molar value.

TEST SMILES	ASSAYED TARGET	QUAL	pIC50
O=C(CCCCCCNC(=O)c1cnc(N(c2ccccc2)c2ccccc2)nc1)NO	HT-29	<	5.30
COc1ccc(N(C)c2nc(C)nc3ccccc23)cc1OCCCC(=O)NO	HT-29	=	7.14

* * *

- EXPERIMENT NOTES: Cmax in Sprague-Dawley rat at 12 mg/kg, po measured up to 24 hrs by LC-MS/MS analysis
- Format: ADME, organism-based
- Set-up: dose 12 mg/kg, route oral
- CONDITIONS USED: in vivo
READOUT TYPE: Cmax (ng/mL)

TEST SMILES	READOUT TYPE	QUANTITATIVE READOUT
COc1ccc(N(C)c2nc(C)nc3ccccc23)cc1OCCCC(=O)NO	Cmax	238

* * *

- Test system: A2780
- EXPERIMENT NOTES: Cytotoxicity against human A2780 cells after 72 hrs by MTT assay
- Type: functional, cell-based
- CONDITIONS USED: A2780, 72 h
Collected IC50 values appear next to each entry.
READOUT TYPE: IC50

TEST SMILES	RESULT
O=C(CCCCCCNC(=O)c1cnc(N(c2ccccc2)c2ccccc2)nc1)NO	> 5000 nM
COc1ccc(N(C)c2nc(C)nc3ccccc23)cc1OCCCC(=O)NO	46 nM

* * *

- ASSAYED TARGET: Histone deacetylase 11 (Homo sapiens, UniProt Q96DB2)
- Sequence (Q96DB2 whole entry): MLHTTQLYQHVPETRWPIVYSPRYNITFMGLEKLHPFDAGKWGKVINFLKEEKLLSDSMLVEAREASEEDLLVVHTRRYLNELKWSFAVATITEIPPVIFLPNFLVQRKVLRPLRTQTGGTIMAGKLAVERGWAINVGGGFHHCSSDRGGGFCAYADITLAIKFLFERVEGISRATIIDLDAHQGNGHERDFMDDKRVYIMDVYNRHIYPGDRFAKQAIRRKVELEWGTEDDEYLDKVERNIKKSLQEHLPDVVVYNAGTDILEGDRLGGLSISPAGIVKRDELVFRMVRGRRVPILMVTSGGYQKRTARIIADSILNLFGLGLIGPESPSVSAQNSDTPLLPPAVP

TEST SMILES	IC50
COc1ccc(N(C)c2nc(C)nc3ccccc23)cc1OCCCC(=O)NO	> 10 µM
